I'd appreciate it if you could supply melting point values for the items below.
One number for each entry, in °C.

Return reported melting point; argument: N#CCC(N)=C(C#N)C#N
172

Please give melting point, item by item, for the list that follows.
1. COc1c(Cl)c(Cl)c(Cl)c(Cl)c1OC
2. C1CCSC1
3. c1ccc2c(c1)Cc1cc3ccccc3cc1-2
4. CCCCCCCCCCCCC(=O)O
5. C#CC(O)CCC (stereo not drawn)
6. CCCCCCCc1ccccc1
7. O=C(Oc1ccc2ccccc2c1)c1ccccc1O

90
-96.1
212
44.5
-80
-48
95.5

Value sought for every listed compound: melting point.
1. O=C(CF)c1ccccc1
2. Cc1ccc(N=C=S)cc1
3. CC1=CCC(C(C)(C)O)C[C@@H]1O (stereo partly drawn)
4. Cc1c(N=C=O)cccc1N=C=O
5. CCC(C(=O)O)C(=O)O
6. O=C(O)CCCCCCCC(=O)O
7. Cc1ccc(Nc2ccc(Nc3ccc(C)cc3)c3c2C(=O)c2ccccc2C3=O)cc1
8. c1ccc(NC2CCCCC2)cc1

[29, 25.5, 130, 18.3, 114, 106, 218, 16]

For the 4 compounds below, give their melting point values.
1. CCN(Cc1ccccc1)c1ccccc1
2. CC(C)(C)C(O)/C(=C\c1ccc(Cl)cc1Cl)n1cncn1 (stereo not drawn)
3. CC[N+](C)(C)CCOC(=O)C(O)(c1ccccc1)c1ccccc1.[Cl-]
4. Cc1cc(C)c(C)c(O)c1C

1: 35; 2: 147; 3: 213; 4: 118

Hi! Can you tell me melting point for each of these compounds?
1. CCOC(=O)c1cccnc1
2. Cc1ccn(-c2ccccc2)n1
3. NCCNCCNCCNCCN
4. O=c1c(Cl)c(Cl)cnn1-c1ccccc1
5. c1ccc(Cc2cccnc2)cc1
6. Cc1cccc(C#N)c1

1: 8.5; 2: 37; 3: -30; 4: 162; 5: 34; 6: -23

Working through the 7 compounds below one at a time, give melting point for each.
1. CCCc1ccccc1O
2. CC(C)Oc1ccc(Nc2ccccc2)cc1
3. C#CCC(C)C
4. CCCCCCCCCCCCCCCCCCBr
5. O=C(O)C(Br)CBr (stereo not drawn)
6. C/C=C/C#N
7. CCCCCCCC(=O)OC(=O)CCCCCCC

[7, 79, -105, 28.2, 66.5, -51.5, -1]

Could you tell me melting point for each of these compounds? They are listed below.
1. Cc1cnccn1
2. Ic1cc(I)c(I)cc1I
3. CCOC(=O)C1(c2ccccc2)CCN(CCc2ccc(N)cc2)CC1
4. Cc1ccc2nccnc2c1
5. CC(C)C1=CC2=C(CC1)[C@@]1(C)CCC[C@@](C)(C(=O)O)[C@@H]1CC2

1. -29
2. 254
3. 83
4. 218
5. 164

State recorded melting point for all listed compounds.
1. c1ccc2c(c1)CC1c3ccccc3CCN1C2 (stereo not drawn)
2. O=[N+]([O-])c1ccc(Oc2ccc(N=C=S)cc2)cc1
3. CCOC(=O)c1ccc(OC)cc1
4. O=C(Nc1ccccc1)C(Cl)(Cl)Cl
5. O=C(O)c1c(Cl)c(Cl)c(Cl)c(Cl)c1Cl
6. Cl.Nc1ccc(N=Nc2ccccc2)c(N)c1
7. CCCc1cccc(C)c1
8. CC(CN1c2ccccc2Sc2ccccc21)[N+](C)(C)CCO.[Cl-] (stereo not drawn)

[85, 110, 7.5, 96, 209, 118, -82.5, 233]

Working through the 3 compounds below one at a time, give melting point for each.
1. CCCCN(CCN(CCCC)C(=O)N1CCOCC1)C(=O)N1CCOCC1
2. C#CC1(O)CCCCC1
3. Cc1ccsc1/C=C/C1=NCCCN1C

41.5
31.5
240

---

Exercise: state measured melting point for each of the compounds provided.
Numbers only, in °C.

Some entries whose results are on file:
Quick one: melting point of Nc1ccccc1N ?
102

What do you get for CCOC(=O)Nc1ccc2c(c1)N(C(=O)CCN1CCOCC1)c1ccccc1S2 ?
156

CCCCCC(=O)O ?
-3

Hey, quick one: what's melting point for each of these?
1. CCCCCCCCCCCCBr
2. Cc1ccc2c(c1Cl)C(=O)c1ccccc1C2=O
3. COc1ccc(Cl)cc1Cl
4. Cc1ccc2[nH]ccc2c1
5. C[Si]1(C)N[Si](C)(C)N[Si](C)(C)N1
6. O=C(O)c1ccccc1Oc1ccccc1
7. CC(/C=C/C=C(\C)C(=O)O[C@@H]1O[C@H](CO[C@@H]2O[C@H](CO)[C@@H](O)[C@H](O)[C@H]2O)[C@@H](O)[C@H](O)[C@H]1O)=C\C=C\C=C(C)\C=C\C=C(/C)C(=O)O[C@@H]1O[C@H](CO[C@@H]2O[C@H](CO)[C@@H](O)[C@H](O)[C@H]2O)[C@@H](O)[C@H](O)[C@H]1O

[-9.5, 170, 28.5, 60, -10, 113, 186]

---

// map melting point to label using small value = under 20 °C, mid value = from 20 °C up to 100 °C, large value = 100 °C and over

Reference set (5 entries):
Please classify: CCCCCCCCCCCCCCCCOC(C)=O
small value

Try this molecule too: O=C(O)c1cccc([N+](=O)[O-])c1
large value

One more molecule: O=c1ccocc1
mid value

One more molecule: CC(=O)Nc1ccc(CC(=O)O)cc1
large value

Try CCCCCCCCOC(=O)CC next.
small value

Further cases:
Bin this entry: COC(=O)c1ccc(C)cc1O
mid value

Same again, this time with N=C(N)c1ccc(C=Cc2ccc(C(=N)N)cc2O)cc1
large value

// next record ClCc1cc(Cl)cc(Cl)c1
mid value

Lookup Nc1cccc(Br)c1
small value

Next: C#C
small value

# iterate: NS(=O)(=O)c1cc2c(cc1Cl)NCNS2(=O)=O
large value

---

Answer each item with its documented boiling point.
One number for each entry, in °C.

Guide cases for boiling point, answers given:
Name the recorded boiling point for CC(Cl)CCCCl (centres undefined) .
162

Please give the result for Clc1ccc(Cl)c(Br)c1 too.
226

Next molecule: ClC[Si](Cl)(Cl)Cl
118

Moving on to the next molecule.
Name the reported boiling point value associated with the molecule CCCCCOC(=O)CC
169

---

Record form. Attribute: melting point. Fill in for each entry.
One number for each entry, in °C.

These recorded examples may help you get a feel for the data.
Suppose we examine the molecule COc1cc2c(c(OC)c1OC)-c1ccc(SC)c(=O)cc1[C@@H](NC(C)=O)CC2 ; what melting point value has been reported?
193

Also check c1ccc2c(c1)CCC2
-51.4

Queued: CCCCCCCC(=O)OC
-40

Same again, this time with COc1cc(Cl)c(OC)cc1Cl
134

Field entry: CC(=O)Cl
-113

Batch lookup, melting point per entry.
1. C#CCCC(=O)O
2. CCC(C(=O)O)C1(O)CCCCC1 (centres undefined)
3. CCOP(=S)(OCC)SC(CCl)N1C(=O)c2ccccc2C1=O (centres undefined)

1: 57.7; 2: 81.5; 3: 68

// for each molecule in input: emit melting point
1. CCCCCCCCC(Br)CBr (centres undefined)
2. Nc1ccc(O)cc1

28
188

Parameters: items (list). Returns: melting point for each item.
1. CC(=O)c1ccc(OCC(=O)O)cc1
2. COc1c2ccoc2cc2oc(C)cc(=O)c12
3. Nc1ccc(S(=O)(=O)c2ccc([N+](=O)[O-])cc2)cc1
4. Cc1cc(C)cc(C(C)(C)C)c1
5. CCCC(=O)OC
6. Clc1cc(Cl)c2c(c1)oc1cc(Cl)cc(Cl)c12

[176, 144, 170, -18, -85.8, 207]

---

Hi there, I'd appreciate the recorded log10 biotransformation half-life (days) for every entry that follows.
# PROTOCOL CONDITIONS: fish
One number for each entry.

Which log10 biotransformation half-life (days) is listed for CCOP(=S)(OCC)Oc1nc(Cl)c(Cl)cc1Cl ?
0.77

Could you tell me log10 biotransformation half-life (days) for each of these compounds? They are listed below.
1. CCCC(Cn1cncn1)c1ccc(Cl)cc1Cl (stereo not drawn)
2. CCOP(=S)(OCC)ON=C(C#N)c1ccccc1
3. OC(C(F)(F)F)C(F)(F)F
4. ClC(Cl)=C(Cl)Cl
5. c1ccc2sc(SSc3nc4ccccc4s3)nc2c1
6. O=P(OCCCl)(OCCCl)OCCCl
7. ClC(Cl)=C(Cl)C(Cl)=C(Cl)Cl

1.19
0.84
-1.32
-0.88
-0.91
-0.66
2.07

Could you tell me log10 biotransformation half-life (days) for each of these compounds? They are listed below.
1. Clc1c(Cl)c(Cl)c2c(c1Cl)Oc1ccccc1O2
2. C[Si]1(C)O[Si](C)(C)O[Si](C)(C)O[Si](C)(C)O1
3. CCCCC(CC)COC(=O)c1nc(Cl)c(Cl)c(N)c1Cl (stereo not drawn)

[1.02, 1.88, 0.45]

Required: log10 biotransformation half-life (days), one value per compound below.
1. Clc1ccc(-c2c(Cl)ccc(Cl)c2Cl)c(Cl)c1
2. O=[N+]([O-])c1ccc(Cl)c(Cl)c1

1. 2.61
2. -0.27
